measured parameter: melting point

In [3]: df
Out[3]:
                                   compound  measured_parameter  recorded_value
0  Nc1ccccc1Nc1ccc(C(=O)c2ccccc2C(=O)O)cc1[N+](=O)[O-] [C3-17]       melting point   201 to 202 °C
1  O=C(O)c1ccccc1C(=O)c1ccc(Nc2cccc(Cl)c2)c([N+](=O)[O-])c1       melting point   159 to 161 °C
2  Nc1ccccc1Sc1ccc(CNc2ccccc2C(=O)O)cc1[N+](=O)[O-] [C3-065]       melting point   201 to 203 °C
3  CN(C)c1cc(C(=O)c2ccccc2C(=O)O)ccc1Sc1ccc(Cl)c(Cl)c1 [C3-095]       melting point   144 to 146 °C
4  Cc1ccc(C(=O)O)cc1NCc1ccc(Sc2ccc(Cl)c(Cl)c2)c([N+](=O)[O-])c1 [C3-075]       melting point   222 to 224 °C

melting point for COc1ccc(Nc2ccc(C(=O)c3ccccc3C(=O)O)cc2[N+](=O)[O-])cc1 [C3-24] ?
225 to 226 °C

melting point for O=C(O)c1c(Cl)cccc1NCc1ccc(Sc2ccc(Cl)c(Cl)c2)c([N+](=O)[O-])c1 [C3-088] ?
204 to 206 °C

melting point for O=C(O)c1ccccc1C(=O)c1ccc(Nc2nccs2)c([N+](=O)[O-])c1 [C3-27] ?
99 to 100 °C

melting point for Nc1ccccc1Sc1ccc(CNc2cccc(C(=O)O)c2)cc1[N+](=O)[O-] [C3-027] ?
105 to 107 °C

melting point for O=C(O)c1ccc(Cl)c(NCc2ccc(Sc3ccc(Cl)c(Cl)c3)c([N+](=O)[O-])c2)c1 [C3-071] ?
196 to 198 °C

melting point for O=C(O)c1ccc(Cl)cc1NCc1ccc(Sc2ccc(Cl)c(Cl)c2)c([N+](=O)[O-])c1 [C3-087] ?
220 to 222 °C
